B1: RAD54B (parent)
chain: YVQEKRDGLKRRQQLEEELLRAKI

# Variants of: B1
# EXPERIMENTAL_DETAILS: protein stability index of a GFP-peptide fusion (GPS, HEK-293T) (PSI 1-6); higher = more stable;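 also: lentivirally expressed fusions sorted by FACS into six bins by GFP to DsRed ratio, PSI derived from sequencing read proportions per bin multiplied by bin number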
# SETUP_CONDITIONS: c terminus: a fixed tail appended
REPORTED_PROPERTY: protein stability index
API note: the answer field is a bare number with no unit suffix.

Documented protein stability index of `G8Q` : 2.01

protein stability index reported for this variant `E17N` : 2

Field protein stability index (entry `G8C` ) reads 1.98

variant `K5P` , protein stability index observed: 2.05
